System: SW-620
experiment.description: Cytotoxicity against human SW620 cells assessed as cellular growth at 10 uM by SRB assay
Format: functional
Items are presented alongside their recorded Activity.
The figure you give is taken to be in %; do not add the unit.

O=C(Nc1nc2ccc(Cl)cc2s1)c1ccc(Cl)cc1Cl 111.18
Nc1c(C(=O)Nc2ccccc2F)sc2nc3c(cc12)C(=O)CCC3 30
O=C(Nc1ccc2oc(=O)ccc2c1)c1ccc(-c2ccc(Cl)c(Cl)c2)o1 100.55
O=C1N=C(c2ccccc2)S/C1=C\c1ccc2c(c1)OCO2 89.42

Ask: Consider the compound O=c1/c(=C/c2ccccc2Cl)sc2nc(-c3ccccc3)nn12 and give its recorded Activity.
Result: 107.46

Ask: Note down Activity recorded for O=C(Nc1nc2ccccc2s1)c1ccc(F)cc1
Result: 112.1

Ask: Return Activity (reported value) for this compound: O=C(NCCc1ccc(Cl)cc1)c1[nH]c2ccccc2c1Cl
Result: 92.87

Ask: Return Activity (reported value) for this compound: COc1cc(/C=c2/sc3nc4ccccc4n3c2=O)cc(I)c1O
Result: 93.08

Ask: Return value of Activity for input CC1(C)CC(=O)c2cc3c(N)c(C(=O)NCc4ccccc4)sc3nc2C1 , no commentary.
Result: 111.03

Ask: Determine its reported Activity: Cc1cc(C)c(NC(=O)c2sc3nc4c(cc3c2N)C(=O)CCC4)c(C)c1
Result: 15.59

Ask: For the compound CC1(C)CCc2cc(-c3ccn(S(=O)(=O)c4ccc(Cl)cc4)n3)ccc2O1 , give its reported Activity.
Result: 87.74
